B1: CPEB3 Ribozyme (parent)
chain: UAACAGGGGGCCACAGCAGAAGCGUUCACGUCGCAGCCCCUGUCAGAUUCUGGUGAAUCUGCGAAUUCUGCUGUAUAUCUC

# Variants of: B1
# testMethodNotes: self-cleavage, relative activity (ratio to wild type); higher = more cleavage; in vitro, sequencing
Decide by self-cleavage: equal to or exceeding 0.4 means label 1, less means label 0.

Past entries and their recorded results:
* A5G G24C | label 1
* G63C | label 1
* A45U G63C | label 1
* U31C U80A | label 1
* U31C U76A | label 1

Input line: Say whether A35G U60G shows self-cleavage of 0.4 or more.
Output line: label 1

Input line: Say whether G9U A35C shows self-cleavage of 0.4 or more.
Output line: label 0

Input line: Say whether A5G U67C shows self-cleavage of 0.4 or more.
Output line: label 0

Input line: Say whether A13G C40G shows self-cleavage of 0.4 or more.
Output line: label 0

Input line: Say whether A3C U69A shows self-cleavage of 0.4 or more.
Output line: label 1

Input line: Say whether A20G A65G shows self-cleavage of 0.4 or more.
Output line: label 0

Input line: Say whether U25C C39U shows self-cleavage of 0.4 or more.
Output line: label 0

Input line: Say whether G10U U80C shows self-cleavage of 0.4 or more.
Output line: label 0

Input line: Say whether C37G U51G shows self-cleavage of 0.4 or more.
Output line: label 1
